Target: T1, PCSK9Δhelix (human, UniProt Q8NBP7 31-152; Q8NBP7 168-692)
T1 construct: Made by TEV cleavage of human PCSK9 M1-Q692 with an engineered TEV site; The new N-terminus of the catalytic domain is S-A168; also called His-PCSK9Δhelix; PCSK9 lacking the P' helix
T1 sequence (Q8NBP7 31-152, stated change not applied, chain 1 of 2): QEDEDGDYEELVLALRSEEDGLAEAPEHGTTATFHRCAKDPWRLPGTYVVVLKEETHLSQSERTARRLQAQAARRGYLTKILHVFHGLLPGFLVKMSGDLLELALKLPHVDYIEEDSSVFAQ
T1 sequence (Q8NBP7 other isoform, or with tags, fused parts or gaps mutant, chain 2 of 2): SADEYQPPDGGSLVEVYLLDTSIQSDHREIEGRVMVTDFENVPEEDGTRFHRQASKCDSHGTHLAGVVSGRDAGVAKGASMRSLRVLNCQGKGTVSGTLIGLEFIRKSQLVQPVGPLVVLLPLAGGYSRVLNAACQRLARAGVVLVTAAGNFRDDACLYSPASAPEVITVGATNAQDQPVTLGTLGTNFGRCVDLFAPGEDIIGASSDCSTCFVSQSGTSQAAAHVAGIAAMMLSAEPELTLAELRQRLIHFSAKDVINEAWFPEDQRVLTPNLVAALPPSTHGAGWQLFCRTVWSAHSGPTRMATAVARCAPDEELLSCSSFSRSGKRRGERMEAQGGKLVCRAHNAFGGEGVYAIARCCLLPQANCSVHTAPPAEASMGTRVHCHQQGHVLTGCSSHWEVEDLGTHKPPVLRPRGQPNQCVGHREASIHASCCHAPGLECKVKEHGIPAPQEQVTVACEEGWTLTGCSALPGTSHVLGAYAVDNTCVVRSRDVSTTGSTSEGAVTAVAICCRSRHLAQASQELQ
Assay: TR-FRET competition; competitor Ab20 binding to His-PCSK9Δhelix;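 also: readout is anti-His-APC on PCSK9 with anti-Fc-europium on the Fc-tagged ligand, compound incubated 30 min, normalized signal ratio fitted by four-parameter logistic regression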
Square brackets hold non-standard residues; d marks the D form. * marks the point of attachment. hArg = N=C(N)NCCCC[C@H](N)C(=O)O; Pentanoyl = CCCCC(=O)*
Metric: pIC50
Answers are plain numbers, as −log10 of the molar value.

List reported pIC50 for each of these binders:
1. Ac-DLMAWNLVRIGLLR-NH2 [Compound 42]
2. Ac-WNLVRIGLLR-NH2 [Compound 53]
3. Ac-DLMPWNLVRIGLAR-NH2 [Compound 55]
4. Ac-DLMPWNLARIGLLR-NH2 [Compound 60]

4.55
4.48
5.01
4.72

Request the reported pIC50 associated with Pentanoyl-WNLV[hArg]IGLTR-NH2 (SMILES CCCCC(=O)N[C@@H](Cc1c[nH]c2ccccc12)C(=O)N[C@@H](CC(N)=O)C(=O)N[C@@H](CC(C)C)C(=O)N[C@H](C(=O)N[C@@H](CCCCNC(=N)N)C(=O)N[C@H](C(=O)NCC(=O)N[C@@H](CC(C)C)C(=O)N[C@H](C(=O)N[C@@H](CCCNC(=N)N)C(N)=O)[C@@H](C)O)[C@@H](C)CC)C(C)C, also called n-BuC(O)-WNLV(homoR)IGLTR-NH2) [Compound 118]
5.85
